- targetOrTestSystem: human PD-1 (Jurkat-PD-1 cells) / PE-labeled human PD-L1-Ig (Homo sapiens, UniProt Q15116)
- Construct: expressed in transfected cells; host or cells: Jurkat cell line over-expressing human PD-1
- Sequence (Q15116 25-288): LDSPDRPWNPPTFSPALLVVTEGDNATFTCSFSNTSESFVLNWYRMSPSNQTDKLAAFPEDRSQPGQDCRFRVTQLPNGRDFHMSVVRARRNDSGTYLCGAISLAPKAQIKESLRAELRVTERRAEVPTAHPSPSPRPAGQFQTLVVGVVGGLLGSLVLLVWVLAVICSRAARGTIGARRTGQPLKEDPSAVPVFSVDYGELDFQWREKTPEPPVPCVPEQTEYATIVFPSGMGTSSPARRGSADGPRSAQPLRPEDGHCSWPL
- method: Jurkat-PD-1 Cell Binding High-Content Screening Assay (CBA); Jurkat hPD1-PDL1 assay
- details: Jurkat cell line over-expressing human PD-1; PE-labeled PD-L1-Ig 20 nM final; compound incubated 2 hours at 37° C.; read-out: Jurkat HPD1-PDL1 IC50
Positions of bridges follow the written chain, without caps; N, C: chain ends. Non-standard residues stand in square brackets, D forms with d. Residues, ends and D or L forms follow the SMILES beside them. Bip = N[C@@H](Cc1ccc(-c2ccccc2)cc1)C(=O)O; NMeA = CN[C@@H](C)C(=O)O; Sar = CNCC(=O)O

molecule	readoutUnits	IC50
CC(C)C[C@@H]1NC(=O)[C@H](Cc2c[nH]c3ccccc23)NC(=O)[C@H](CC(=O)O)NC(=O)[C@H](Cc2ccc(O)cc2)NC(=O)[C@H](Cc2ccccc2)NC(=O)CSC[C@@H](C(=O)NCC(N)=O)NC(=O)[C@H](CO)NC(=O)[C@H](C(C)C)NC(=O)[C@H](CC(C)C)NC(=O)[C@H](CCCNC(=N)N)NC(=O)CN(C)C(=O)[C@H](C)N(C)C(=O)[C@H](C(C)C)NC(=O)[C@H](Cc2ccc(-c3ccccc3)cc2)NC1=O [Example 1204] ({CH2CO}-FYDWL[Bip]V[NMeA][Sar]RLVSCG-NH2; thioether N-14)	nM	400

---

- targetOrTestSystem: human PD-1 (Jurkat-PD-1 cells) / PE-labeled human PD-L1-Ig (Homo sapiens, UniProt Q15116)
- Construct: expressed in transfected cells; host or cells: Jurkat cell line over-expressing human PD-1
- method: Jurkat-PD-1 Cell Binding High-Content Screening Assay (CBA); Jurkat hPD1-PDL1 assay
- details: Jurkat cell line over-expressing human PD-1; PE-labeled PD-L1-Ig 20 nM final; compound incubated 2 hours at 37° C.; read-out: Jurkat HPD1-PDL1 IC50
Positions of bridges follow the written chain, without caps; N, C: chain ends. Non-standard residues stand in square brackets, D forms with d. Residues, ends and D or L forms follow the SMILES beside them. Tyr(3,5-Br2) = N[C@@H](Cc1cc(Br)c(O)c(Br)c1)C(=O)O; Bip = N[C@@H](Cc1ccc(-c2ccccc2)cc1)C(=O)O; Phe(3-F) = N[C@@H](Cc1cccc(F)c1)C(=O)O; NMeF = CN[C@@H](Cc1ccccc1)C(=O)O; dDab = NCC[C@@H](N)C(=O)O; NMeA = CN[C@@H](C)C(=O)O; Nle = CCCC[C@H](N)C(=O)O; Dab = NCC[C@H](N)C(=O)O; Dap = NC[C@H](N)C(=O)O; Sar = CNCC(=O)O
assayEndpoint: log10 of IC50 (log10 of the value in nM)

molecule	log10 of IC50
CC(C)C[C@@H]1NC(=O)[C@H](Cc2c[nH]c3ccccc23)NC(=O)[C@H](CC(=O)O)NC(=O)[C@H](Cc2cc(Br)c(O)c(Br)c2)NC(=O)[C@H](Cc2ccccc2)NC(=O)CSC[C@@H](C(=O)N[C@@H](C)C(N)=O)NC(=O)[C@H](CO)NC(=O)[C@H](C(C)C)NC(=O)[C@H](CC(C)C)NC(=O)[C@H](CC(N)=O)NC(=O)CN(C)C(=O)[C@H](C)N(C)C(=O)[C@H](C(C)C)NC(=O)[C@H](Cc2ccc(-c3ccccc3)cc2)NC1=O [Example 1113] ({CH2CO}-F[Tyr(3,5-Br2)]DWL[Bip]V[NMeA][Sar]NLVSCA-NH2; thioether N-14)	2.57
CCCC[C@@H]1NC(=O)[C@H](CC(N)=O)NC(=O)CN(C)C(=O)[C@H](C)N(C)C(=O)[C@H](C(C)C)NC(=O)[C@H](Cc2ccc(-c3ccccc3)cc2)NC(=O)[C@H](CC(C)C)NC(=O)[C@H](Cc2c[nH]c3ccccc23)NC(=O)[C@H](CC(=O)O)NC(=O)[C@H](Cc2ccc(O)cc2)NC(=O)[C@H](Cc2ccccc2)NC(=O)CSC[C@@H](C(=O)NCC(N)=O)NC(=O)[C@H](CO)NC(=O)[C@H](C(C)C)NC1=O [Example 1073] ({CH2CO}-FYDWL[Bip]V[NMeA][Sar]N[Nle]VSCG-NH2; thioether N-14)	2.28
CC(C)C[C@@H]1NC(=O)CSC[C@@H](C(=O)N[C@@H](C)C(N)=O)NC(=O)[C@H](CO)NC(=O)[C@H](C(C)C)NC(=O)[C@H](CC(C)C)NC(=O)[C@H](CCCNC(=N)N)NC(=O)[C@H](Cc2ccccc2)N(C)C(=O)[C@H](C)N(C)C(=O)[C@H](CCCNC(=N)N)NC(=O)[C@H](Cc2ccc(-c3ccccc3)cc2)NC(=O)[C@H](C(C)C)NC(=O)[C@H](Cc2c[nH]c3ccccc23)NC(=O)[C@H](CC(=O)O)NC(=O)[C@H](Cc2ccc(O)cc2)NC1=O [Example 1308] ({CH2CO}-LYDWV[Bip]R[NMeA][NMeF]RLVSCA-NH2; thioether N-14)	2.61
CC(C)C[C@@H]1NC(=O)[C@H](Cc2c[nH]c3ccccc23)NC(=O)[C@H](CC(=O)O)NC(=O)[C@H](Cc2ccc(O)cc2)NC(=O)[C@H](Cc2ccccc2)NC(=O)CSC[C@@H](C(=O)N[C@@H](C)C(N)=O)NC(=O)[C@H](CO)NC(=O)[C@H](C(C)C)NC(=O)[C@H](CC(C)C)NC(=O)[C@H](CCN)NC(=O)[C@H]2CCCN2C(=O)[C@H](CN)NC(=O)[C@H](C(C)C)NC(=O)[C@H](Cc2ccc(-c3ccccc3)cc2)NC1=O [Example 1408] ({CH2CO}-FYDWL[Bip]V[Dap][dP][Dab]LVSCA-NH2; thioether N-14)	1.95
CC(C)C[C@@H]1NC(=O)[C@H](CCCNC(=N)N)NC(=O)[C@H](Cc2ccccc2)N(C)C(=O)[C@H](C)N(C)C(=O)[C@H](C(C)C)NC(=O)[C@H](Cc2ccc(-c3ccccc3)cc2)NC(=O)[C@H](C(C)C)NC(=O)[C@H](Cc2c[nH]c3ccccc23)NC(=O)[C@H](CC(=O)O)NC(=O)[C@H](Cc2ccc(O)cc2)NC(=O)[C@H](Cc2ccccc2)NC(=O)CSC[C@@H](C(=O)NCC(N)=O)NC(=O)[C@H](CO)NC(=O)[C@H](C(C)C)NC1=O [Example 1206] ({CH2CO}-FYDWV[Bip]V[NMeA][NMeF]RLVSCG-NH2; thioether N-14)	2.65
CC(C)C[C@@H]1NC(=O)[C@H](Cc2c[nH]c3ccccc23)NC(=O)[C@H](CC(=O)O)NC(=O)[C@H](Cc2ccc(O)cc2)NC(=O)[C@H](Cc2ccccc2)NC(=O)CSC[C@@H](C(=O)N[C@@H](C)C(N)=O)NC(=O)[C@H](CO)NC(=O)[C@H](C(C)C)NC(=O)[C@H](CC(C)C)NC(=O)[C@H](CC(N)=O)NC(=O)CN(C)C(=O)[C@@H](CCN)NC(=O)[C@H](C(C)C)NC(=O)[C@H](Cc2ccc(-c3ccccc3)cc2)NC1=O [Example 1196] ({CH2CO}-FYDWL[Bip]V[dDab][Sar]NLVSCA-NH2; thioether N-14)	2.98
CC(C)C[C@@H]1NC(=O)[C@H](CC(N)=O)NC(=O)[C@H](Cc2ccccc2)N(C)C(=O)[C@H](C)N(C)C(=O)[C@H](C(C)C)NC(=O)[C@H](Cc2ccc(-c3ccccc3)cc2)NC(=O)[C@H](C(C)C)NC(=O)[C@H](Cc2c[nH]c3ccccc23)NC(=O)[C@H](CC(=O)O)NC(=O)[C@H](Cc2ccc(O)cc2)NC(=O)[C@H](Cc2ccccc2)NC(=O)CSC[C@@H](C(=O)N[C@@H](C)C(N)=O)NC(=O)[C@H](CO)NC(=O)[C@H](C(C)C)NC1=O [Example 1112] ({CH2CO}-FYDWV[Bip]V[NMeA][NMeF]NLVSCA-NH2; thioether N-14)	2.57
CC(C)C[C@@H]1NC(=O)[C@H](Cc2c[nH]c3ccccc23)NC(=O)[C@H](CC(=O)O)NC(=O)[C@H](Cc2cccc(F)c2)NC(=O)[C@H](Cc2ccccc2)NC(=O)CSC[C@@H](C(=O)N[C@@H](C)C(N)=O)NC(=O)[C@H](CO)NC(=O)[C@H](C(C)C)NC(=O)[C@H](CC(C)C)NC(=O)[C@H](CC(N)=O)NC(=O)[C@H]2CCCN2C(=O)[C@H](C)N(C)C(=O)[C@H](C(C)C)NC(=O)[C@H](Cc2ccc(-c3ccccc3)cc2)NC1=O [Example 1047] ({CH2CO}-F[Phe(3-F)]DWL[Bip]V[NMeA][dP]NLVSCA-NH2; thioether N-14)	1.95
